# key: entry, value: pIC50
# ASSAYED_SYSTEM: AChE (Rattus norvegicus)
# Construct: the use of crude homogenised from rat’s brain structures, as used in the present work; from tissue; host or cells: Wistar rat cerebral cortex, homogenate supernatant
# PROTOCOL_DESCRIPTION: In vitro AChE activity (Ellman method) in hippocampus homogenate
# Format: biochemical
# TEST_CONDITIONS: rat hippocampus homogenate; calculated with GraphPad Prism 5; read-out: IC50 of AChE inhibition, Hippocampus
pIC50: −log10 of the molar value.
MEASUREMENT_NAME: pIC50

compound="COc1ccc(C2SCCC(=O)N2CCN2CCCC2)cc1 (stereo not drawn)" assayed_system="AChE (Rattus norvegicus)" recorded_measurement=4.77
compound="O=C1CSC(c2cccc([N+](=O)[O-])c2)N1CCN1CCCC1 (stereo not drawn)" assayed_system="AChE (Rattus norvegicus)" recorded_measurement=4.09
compound="O=C1CCSC(c2cccc(O)c2)N1CCN1CCCC1 (stereo not drawn)" assayed_system="AChE (Rattus norvegicus)" recorded_measurement=4.16
compound="O=C1CCSC(c2ccccc2[N+](=O)[O-])N1CCN1CCCC1 (stereo not drawn)" assayed_system="AChE (Rattus norvegicus)" recorded_measurement=4.03
compound="O=C1CSC(c2ccc([N+](=O)[O-])cc2)N1CCN1CCCC1 (stereo not drawn)" assayed_system="AChE (Rattus norvegicus)" recorded_measurement=5.06
compound="Cc1ccc(C2SCCC(=O)N2CCN2CCCC2)cc1 (stereo not drawn)" assayed_system="AChE (Rattus norvegicus)" recorded_measurement=5.35

###

# ASSAYED_SYSTEM: AChE (Rattus norvegicus)
# Construct: the use of crude homogenised from rat’s brain structures, as used in the present work; from tissue; host or cells: Wistar rat cerebral cortex, homogenate supernatant
# PROTOCOL_DESCRIPTION: In vitro AChE activity (Ellman method) in hippocampus homogenate
# Type: biochemical
# TEST_CONDITIONS: vs control group (water and methanol), p < .05; tested 0.1-250 μM
concentration from which AChE activity was inhibited, hippocampus reference
MEASUREMENT_NAME: concentration from which AChE activity was inhibited, hippocampus

molecule="O=C1CCSC(c2ccc([N+](=O)[O-])cc2)N1CCN1CCCC1 (stereo not shown)" recorded_measurement="≥ 1 µM"
molecule="O=C1CSC(c2cccc([N+](=O)[O-])c2)N1CCN1CCCC1 (stereo not shown)" recorded_measurement="≥ 10 µM"
molecule="O=C1CCSC(c2cccc([N+](=O)[O-])c2)N1CCN1CCCC1 (stereo not shown)" recorded_measurement="≥ 50 µM"
molecule="O=C1CSC(c2ccc([N+](=O)[O-])cc2)N1CCN1CCCC1 (stereo not shown)" recorded_measurement="≥ 1 µM"
molecule="O=C1CCSC(c2ccccc2[N+](=O)[O-])N1CCN1CCCC1 (stereo not shown)" recorded_measurement="5 µM"
molecule="Cc1ccc(C2SCCC(=O)N2CCN2CCCC2)cc1 (stereo not shown)" recorded_measurement="≥ 1 µM"
molecule="O=C1CCSC(c2ccccc2)N1CCN1CCCC1 (stereo not shown)" recorded_measurement="≥ 1 µM"

###

# ASSAYED_SYSTEM: AChE (Rattus norvegicus, UniProt P37136)
# Construct: the use of crude homogenised from rat’s brain structures, as used in the present work; from tissue; host or cells: Wistar rat cerebral cortex, homogenate supernatant
# Sequence (P37136 32-614): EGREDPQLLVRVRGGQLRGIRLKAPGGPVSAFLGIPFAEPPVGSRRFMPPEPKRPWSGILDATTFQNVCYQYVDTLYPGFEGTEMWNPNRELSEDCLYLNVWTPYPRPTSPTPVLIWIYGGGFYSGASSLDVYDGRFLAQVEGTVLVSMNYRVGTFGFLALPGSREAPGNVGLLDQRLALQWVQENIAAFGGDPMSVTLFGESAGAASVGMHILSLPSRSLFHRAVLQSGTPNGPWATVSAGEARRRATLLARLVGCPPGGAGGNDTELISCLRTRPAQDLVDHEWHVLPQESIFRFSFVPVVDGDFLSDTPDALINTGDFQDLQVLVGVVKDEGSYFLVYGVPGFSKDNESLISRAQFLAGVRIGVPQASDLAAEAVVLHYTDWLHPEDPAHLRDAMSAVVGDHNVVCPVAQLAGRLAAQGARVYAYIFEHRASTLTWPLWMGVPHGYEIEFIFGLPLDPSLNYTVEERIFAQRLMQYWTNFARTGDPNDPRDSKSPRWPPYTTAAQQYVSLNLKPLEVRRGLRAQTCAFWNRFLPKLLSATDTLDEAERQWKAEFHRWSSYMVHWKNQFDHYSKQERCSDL
# PROTOCOL_DESCRIPTION: In vitro AChE activity (Ellman method) in hippocampus homogenate
# Format: biochemical
# TEST_CONDITIONS: rat hippocampus homogenate; calculated with GraphPad Prism 5; read-out: IC50 of AChE inhibition, Hippocampus
MEASUREMENT_NAME: log10(IC50) (log10 of the value in µM)

molecule="O=C1CCSC(c2ccccc2)N1CCN1CCCC1 (centres unmarked)" recorded_measurement=0.72
molecule="O=C1CSC(c2cccc(O)c2)N1CCN1CCCC1 (centres unmarked)" recorded_measurement=1.49
molecule="COc1cccc(C2SCCC(=O)N2CCN2CCCC2)c1 (centres unmarked)" recorded_measurement=1.96
molecule="O=C1CSC(c2ccccc2[N+](=O)[O-])N1CCN1CCCC1 (centres unmarked)" recorded_measurement=2.02
molecule="O=C1CCSC(c2ccc([N+](=O)[O-])cc2)N1CCN1CCCC1 (centres unmarked)" recorded_measurement=0.97
molecule="O=C1CCSC(c2ccc(Cl)cc2)N1CCN1CCCC1 (centres unmarked)" recorded_measurement=1.70
molecule="O=C1CSC(c2ccccc2)N1CCN1CCCC1 (centres unmarked)" recorded_measurement=1.49
molecule="O=C1CCSC(c2cccc([N+](=O)[O-])c2)N1CCN1CCCC1 (centres unmarked)" recorded_measurement=1.47

// provenance: paper PMC6818106
